# reported MRC5 IC50; entries follow
Target: Recombinant human IL-1β (BioLegend 579404) (human, UniProt P01584 117-269)
Test: cell-based or functional assay
Starred links: 1 amine or outer side, 2 acyl side, 3 side chain; linkers in the order of their positions; H or OH if unused. Non-standard residues stand in square brackets, D forms with d. No end group written: not given here. dProc3CH24Pal = (2R,3S)-3-(4-pyridylmethyl)pyrrolidine-2-carboxylic acid, O=C([C@H]1[C@@H](Cc2ccncc2)CCN1[*:1])[*:2]; Phe(4-(5-CO2H-2-pyrimidyl)) = N[C@@H](Cc1ccc(-c2ncc(C(=O)O)cn2)cc1)C(=O)O; dPro(4R-(4-pyridylmethyl)) = O=C(O)[C@H]1C[C@@H](Cc2ccncc2)CN1; Trp(βS-Me,4-F) = C[C@@H](c1c[nH]c2cccc(F)c12)[C@H](N)C(=O)O; Bip(4'-COOH) = N[C@@H](Cc1ccc(-c2ccc(C(=O)O)cc2)cc1)C(=O)O; Ala(1-bicyclo(1.1.1)pentyl) = N[C@@H](CC12CC(C1)C2)C(=O)O; dPro(4R-Bzl(4-F)) = O=C(O)[C@H]1C[C@@H](Cc2ccc(F)cc2)CN1; Ala(morpholin-4-yl) = N[C@@H](CN1CCOCC1)C(=O)O; Ala(pyrimidin-5-yl) = N[C@@H](Cc1cncnc1)C(=O)O; Phe(4-COOH) = N[C@@H](Cc1ccc(C(=O)O)cc1)C(=O)O; Pro(cis-4-F) = O=C(O)[C@@H]1C[C@H](F)CN1; cisHyp = O=C(O)[C@@H]1C[C@H](O)CN1; d(αMeD) = C[C@@](N)(CC(=O)O)C(=O)O; 4Pal = N[C@@H](Cc1ccncc1)C(=O)O; Dab = NCC[C@H](N)C(=O)O; Nva = CCC[C@H](N)C(=O)O; Aib = CC(C)(N)C(=O)O
Kindly provide the numeric value in nM only, without the unit symbol.

Some entries whose results are on file:
# binder, unit descriptor, MRC5 IC50
measured = [
    ("[Phe(4-(5-CO2H-2-pyrimidyl))][Ala(1-bicyclo(1.1.1)pentyl)][Phe(4-COOH)]G[cisHyp][Trp(βS-Me,4-F)][Aib]SW[Aib][Ala(pyrimidin-5-yl)]Q[Dab]G[dPro(4R-(4-pyridylmethyl))] (lactam (positions not given here); also: macrolactam ring, closure sites not given here) [SEQ ID NO: 185]", "nM", 0.043),
    ("cyclo([Bip(4'-COOH)][Ala(1-bicyclo(1.1.1)pentyl)][Phe(4-COOH)]G[Pro(cis-4-F)][Trp(βS-Me,4-F)][Aib]SW[Aib][Ala(morpholin-4-yl)]Q[Dab]G[dPro(4R-Bzl(4-F))]) (ring closure inferred) [SEQ ID NO: 167]", "nM", 0.013),
]

Attention now turns to another entry.
Input: Data request, read-out MRC5 IC50, for [Bip(4'-COOH)][4Pal][Phe(4-COOH)]G[Pro(cis-4-F)][Trp(βS-Me,4-F)][Aib]SW[d(αMeD)][Nva]Q[Dab]G[dProc3CH24Pal] (lactam (positions not given here); also: macrolactam, ring places not given here) [SEQ ID NO: 231]
Output: 0.027
